- Tested on: SNB-19 CNS
- method-description: NCI tumour cell line growth inhibition, 48 h
Entries and their TGI values follow.
Reply with just the number (in µM).

CC(C)(C)c1cc(C(=O)/C=C/C=C/c2ccccc2)cc(C(C)(C)C)c1O ... 77.8
COc1cc2c(cc1O)C1C(O)C(O)C=C3CCN(C2)C31 (stereo not given) ... 10.1
COc1cccc2c1C(=O)c1c(O)c3c(c(O)c1C2=O)CC(O)(/C(C)=N/NC(=O)CCC(=O)N/N=C(\C)C1(O)Cc2c(O)c4c(c(O)c2C(OC2CC(N)C(O)C(C)O2)C1)C(=O)c1c(OC)cccc1C4=O)CC3OC1CC(N)C(O)C(C)O1 (stereo not given) ... 1.38
COc1ccc(C(=O)/C=C/c2ccncc2)cc1OC ... 32.5
CC(/C=N\NC(=S)N1CCCCC1)=N/NC(=S)N1CCCCC1 ... 35.7

// below: TGI requested for another compound
Task: Could you tell me which TGI is on file for C=CCCCCCCCCCCC1(O)C=CC2=[N+](CCCCCN=C(N)N)CCCN21 (stereo not given) ?
Output: 30.4

* * *

- System: SK-MEL-2 melanoma
- method-description: NCI tumour cell line growth inhibition, 48 h
quantity-measured: TGI

// below: answered molecules
O=c1n(-c2ccccc2)c(=O)n2n1C1C=CC2C2C(C1)C2(Cl)Cl (stereo unspecified) ... > 100 µM
CSc1nncc2[nH]c(C)nc12 ... > 100 µM
Cc1cn(CCCCCOC(=O)NC(CCCN=C(N)N)C(=O)O)c(=O)[nH]c1=O (stereo unspecified) ... > 100 µM
CCOC(=O)NC(=O)c1cn(CCOC(=O)NCCCCCCNC(=O)OCCn2cc(C(=O)NC(=O)OCC)c(=O)[nH]c2=O)c(=O)[nH]c1=O ... > 100 µM
N=c1ccn2c(n1)OC1C(O)C(CO)OC12 (stereo unspecified) ... > 1000 µM

// below: TGI requested for another molecule
Task: Could you tell me which TGI is on file for "COC(=O)c1c(O)ccc2c1c1c(n2Cc2ccc(Cl)cc2Cl)C(=O)c2ccccc2C1" ?
Output: > 100 µM

* * *

- Test system: T-47D breast
- method-description: NCI tumour cell line growth inhibition, 48 h
quantity-measured: TGI

// below: answered compounds
Cc1ccc(-c2c3c(n(C4OC(CO)C(O)C(O)C4O)c(=S)c2C#N)CC(C)(C)CC3=O)cc1 (stereo not given) ... > 100 µM
COc1ccc(-c2oc(=O)ccc2-c2cc(OC)c(OC)c(OC)c2)cc1F ... > 100 µM
NCCCNCCCCNCCCN ... 5.91 µM
CC1C[C@]2(C)C(=O)Nc3ccccc3[C@@H]2Nc2ccccc21 (stereo not given in full) ... > 100 µM
CN1C(=O)C(CC=O)(C(C)(C)C)c2ccccc21 (stereo not given) ... > 100 µM
O=C1C[C@H]2[C@@H](O1)[C@@H](O)CN1C(=O)c3ccccc3[C@H]21 ... > 100 µM
Cn1c(=O)c2c(no[n+]2[O-])c2ccccc21 ... 68.3 µM
O=c1c2ccccc2sc2cccc(NCCCN3CCN(CCCNc4cccc5sc6ccccc6c(=O)c45)CC3)c12 ... > 100 µM
COC(=O)c1c(O)ccc2c1c1c(n2Cc2ccc(Cl)cc2Cl)C(=O)c2ccccc2C1 ... > 100 µM
C#CCN(CC#C)C(=O)C(=O)c1c[nH]c2ccc(OC)cc12 ... 83.5 µM

// below: TGI requested for another compound
Task: Could you tell me which TGI is on file for CCOC(=O)c1cc(C2(O)CCN(CC(C)CC)C2=O)c(-c2cc(C)no2)[nH]1 (stereo not given) ?
Output: > 100 µM

* * *

- Test system: HOP-62 NSCLC
- method-description: NCI tumour cell line growth inhibition, 48 h
quantity-measured: TGI

// below: answered compounds
COc1ccc(-c2cc(-c3ccccc3)c(C#N)c(=O)n2C2OC(CO)C(O)C(O)C2O)cc1 (stereo not given) ... > 100 µM
COC(=O)C1(OC(=O)Sc2ccccc2)CCN(C)CC1 ... > 66.6 µM

Task: Could you tell me which TGI is on file for CC(=O)OC12c3ccccc3-c3ccccc3C1C1C(=O)N(C)C(=O)C12Cl (stereo not given) ?
Output: > 10 µM

Task: Could you tell me which TGI is on file for "CCOP(=O)(O)C(C)(C)NC" ?
Output: > 100 µM

Task: Could you tell me which TGI is on file for COc1cc(C2SCC(=O)N2c2ccc(Cl)c(Cl)c2)cc(OC)c1OC (stereo not given) ?
Output: > 100 µM

* * *

- System: EKVX NSCLC
- method-description: NCI tumour cell line growth inhibition, 48 h
Entries and their TGI values follow.

CCOC(=O)C1(c2ccccc2)CCC(=O)CC1 ... > 100 µM
COc1cc(/C=C/C(=O)O)ccc1C(=O)OCc1ccccc1 ... > 100 µM

// below: TGI requested for another compound
Task: Could you tell me which TGI is on file for "Cc1ccc(C(=O)N/N=C(\N=Nc2ccccc2[N+](=O)[O-])c2ccc(N(C)C)cc2)cc1" ?
Output: > 100 µM

* * *

- Tested on: KM12 colon
- method-description: NCI tumour cell line growth inhibition, 48 h
quantity-measured: TGI

O=C(O)CCN(CCC(=O)O)c1ccc(/C=C2\SC(=S)NC2=O)cc1 ... > 100 µM
O=C(Nc1cc(Cl)ccc1Cl)c1cc2cccc(Cl)c2oc1=O ... > 100 µM

// below: TGI requested for another compound
Task: Could you tell me which TGI is on file for CN1C(=O)C(CC=O)(C(C)(C)C)c2ccccc21 (stereo not drawn) ?
Output: > 100 µM

* * *

Entries and their TGI values follow.
- Test system: HCC-2998 colon
- method-description: NCI tumour cell line growth inhibition, 48 h

// below: answered compounds
C[C@@H]1C[C@](O)([C@@H](C)Cl)C(=O)O[C@@H]2CCN3CC=C(COC(=O)[C@]1(C)O)[C@H]23 ... > 100 µM
CC(C)=CCc1c(O)ccc2ccc(=O)oc12 ... > 100 µM
Cc1[nH]c2ccccc2c1-c1cc(-c2cc(-c3c(C)[nH]c4ccccc34)on2)no1 ... > 100 µM
C=CC(=O)N1CCC(C2CCNc3c(C(N)=O)c(-c4ccc(Oc5ccccc5)cc4)nn32)CC1 (stereo not drawn) ... 28.6 µM
Cc1ccc(Cl)cc1Nc1nc(C(F)(F)F)ccc1C(=O)N1CCN(c2cccc(Cl)c2)CC1 ... > 100 µM

Task: Could you tell me which TGI is on file for "CCOc1ccc(N2C(=O)/C(=C/c3ccc(N(CCC#N)CCC#N)cc3)N=C2c2cc([N+](=O)[O-])ccc2Cl)cc1" ?
Output: > 100 µM

Task: Could you tell me which TGI is on file for "Cn1c(=O)c2c(no[n+]2[O-])c2ccccc21" ?
Output: 27.3 µM

Task: Could you tell me which TGI is on file for "Cc1ccc(NC(=S)NNC(=O)c2cc(-c3ccccc3)nc3ccccc23)cc1" ?
Output: 24.3 µM

* * *

- Tested on: MDA-MB-435
- method-description: NCI tumour cell line growth inhibition, 48 h
quantity-measured: TGI

NCCCNCCCCNCCCN ... > 68.2 µM
COc1ccccc1N1CCN(CCCn2c(=O)c3c(OC)nc(C)cc3c(=O)n2-c2ccccc2)CC1 ... > 100 µM
CC12CC(C#N)(C#N)C(C#N)(CO1)C(=N)O2 (centres undefined) ... > 100 µM
CC(C)=C1C(=O)C[C@]2(C)C[C@H]3/C(=C(/C)CCC12)CC[C@@]3(C)O (some centres undefined) ... > 50 µM
NC12Oc3cc(O)cc(O)c3C1(c1ccc(Cl)cc1)c1c(O)cc(O)cc1O2 (centres undefined) ... > 100 µM

Task: Could you tell me which TGI is on file for "CN(C)/C=N/n1c2ccccc2c2ccccc21" ?
Output: > 100 µM

Task: Could you tell me which TGI is on file for "CCCNC(=S)/N=C/c1c(O)c2ccccc2[nH]c1=O" ?
Output: > 100 µM

Task: Could you tell me which TGI is on file for COc1ccc(C(OC(C)=O)C2C(=C(C#N)C#N)c3ccccc3C2=C(C#N)C#N)cc1 (centres undefined) ?
Output: > 100 µM

Task: Could you tell me which TGI is on file for "CCO/C=N/NC(=O)CSc1nc2ccc(I)cc2c(=O)n1Cc1ccccc1" ?
Output: > 100 µM

Task: Could you tell me which TGI is on file for "CC(C)(C)c1cc(C(=O)/C=C/C=C/c2ccccc2)cc(C(C)(C)C)c1O" ?
Output: > 70.4 µM

Task: Could you tell me which TGI is on file for COc1cc2c3c(c4cc(OC)c(OC)cc4c2cc1OC)C(=O)C1CCC(=O)N1C3 (centres undefined) ?
Output: > 100 µM

Task: Could you tell me which TGI is on file for "NS(=O)(=O)c1ccc(N(/C=C/C(=O)C(F)(F)F)CC(=O)c2ccc(Cl)cc2)cc1" ?
Output: > 100 µM

Task: Could you tell me which TGI is on file for CC(C)C[C@H]1[C@@H](OCc2ccccc2)COS(=O)N1[C@H](C)c1ccccc1 (some centres undefined) ?
Output: > 100 µM

Task: Could you tell me which TGI is on file for CC(=O)OC12c3ccccc3-c3ccccc3C1C1C(=O)N(C)C(=O)C12Cl (centres undefined) ?
Output: > 10 µM

Task: Could you tell me which TGI is on file for "CC(=O)Nc1ccc(-c2nc3ccccc3s2)cc1" ?
Output: > 100 µM

Task: Could you tell me which TGI is on file for "Cc1cc(OCc2nnc3n2N=C(c2cc(F)c(Cl)cc2Cl)/C(=C/c2ccc(Cl)cc2)S3)ccc1Cl" ?
Output: > 100 µM

Task: Could you tell me which TGI is on file for "O=S(=O)(O)c1ccc(N=Nc2ccc(N=Nc3c(O)ccc4ccccc34)cc2)cc1" ?
Output: > 100 µM

Source of measurements: PubChem BioAssay (NCI)
